Each entry below carries its reported growth inhibition.
procedureDetails: NCI Yeast Anticancer Drug Screen. Data for the cln2 rad14 strain (AID 165);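 further: 0% = growth equal to vehicle treated cultures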
runConditions: S. cerevisiae cln2 rad14 strain, at 5.0 µM (retest, dose inferred, filed as 0.5), active compounds read high
About 79,000 compounds went through this panel and 15% of them were active in at least one assay; those are over-represented in the sample as a whole.
measurementName: growth inhibition (%)

molecule	measurementName	resultValue
Cc1cc(=O)n(-c2ccc(F)cc2)n1C	growth inhibition	3
COC(=O)C1c2cc(C)ccc2-c2ccc(C)cc21	growth inhibition	-14
CCc1cccc(C(C)C)c1N1C(=O)C(=O)C(c2nc3ccccc3s2)C(=O)C1=O	growth inhibition	51
COC(=O)C(Sc1ccc(Cl)cc1)C1SC(=S)N(C)C1=O (stereo unspecified)	growth inhibition	27
CN(NS(=O)(=O)c1cccc([N+](=O)[O-])c1)c1ccccc1	growth inhibition	5
CCCCCCC/C=C\C(=O)O	growth inhibition	4

###

procedureDetails: NCI Yeast Anticancer Drug Screen. Data for the sgs1 mgt1 strain (AID 161);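 further: 0% = growth of cultures given vehicle only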
runConditions: S. cerevisiae sgs1 mgt1 strain, at 5.0 µM (retest, dose inferred, filed as 0.5), active compounds read high
This is part of a sample that, as a whole, favours compounds with a hit. Of some 79,000 tested, about 15% had one in any assay.
measurementName: growth inhibition (%)

molecule	measurementName	resultValue
CCCCCCCCCCCCCCCC[N+](C)(C)C(C)c1ccc(OC)cc1 (stereo not given)	growth inhibition	98
CCOC1=Cc2c(oc3c(C(C)(C)C)cc(OCC)cc23)OC(C(C)(C)C)=C1	growth inhibition	28
CCCCN(CCO)CCNc1ccc(C)c2sc3ccccc3c(=O)c12	growth inhibition	29
CCCCCCCN(CCCCCCC)CC(=O)NC(=O)c1ccccc1	growth inhibition	23
CN1C(=O)CCCCCCCCCCSc2ccccc21	growth inhibition	4
Cc1ccc(C(=O)OCCN2CCOCC2)c([N+](=O)[O-])c1OCc1ccccc1	growth inhibition	13
COc1cc(/C=C2\Sc3scc(-c4cccc([N+](=O)[O-])c4)[n+]3C2=O)cc(OC)c1OC	growth inhibition	13
COC1OC(CBr)C(OC(C)=O)C(OC(C)=O)C1OC(C)=O (stereo not given)	growth inhibition	8
COC(=O)C1(OC(=O)CCC(=O)O)C(=O)NC2=C1C(=O)c1ccccc1C2=O (stereo not given)	growth inhibition	2
O=C(/C=C(\C(=O)c1ccccc1)N(/C(=C/C(=O)c1ccccc1)C(=O)c1ccccc1)c1ccccc1)c1ccccc1	growth inhibition	-5

###

procedureDetails: NCI Yeast Anticancer Drug Screen. Data for the mlh1 rad18 strain (AID 175)
runConditions: S. cerevisiae mlh1 rad18 strain growth inhibition; at 5.0 µM (retest, dose inferred, filed as 0.5)
The panel holds about 79,000 compounds, 15% with a hit somewhere; the sample as a whole holds those more often. The source made the active and inactive calls. Rule as the data show it: active = growth inhibition above about 70%; inactive = the rest.
Classes used: YES (active), NO (inactive)

compound	cat
O=C(C(/C=N/C(=S)NCc1ccccc1)=C(/O)c1ccccc1)c1ccccc1	NO
CC(=O)[C@H]1CC[C@H]2[C@@H]3CC[C@H]4C[C@@H](N5CCOCC5)CC[C@]4(C)[C@H]3CC[C@]12C	YES
Cc1ccc(C)c(N2C(=O)C(=O)c3c(C)ccc(C)c32)c1	NO
NC(=S)N1N=C2c3ccccc3CCC[C@H]2[C@@H]1c1ccccc1	NO
COc1cc(/C=C2\CCc3ccccc3C2=O)ccc1O	NO
O[C@H](CNCCS)[C@@H](O)CNCCS	NO
Cc1cnc(C#N)c(C#N)n1	NO
O=C(Nc1ccc(C(=O)Nc2ccc3c(O)cc(S(=O)(=O)O)cc3c2)cc1)c1ccccc1	NO
Nc1ccc2ccc3cccc4ccc1c2c34	NO
CC(C)NC(=O)OCCS(=O)c1c(Cl)c(Cl)nn1C (centres undefined)	NO
OCC1CC[N-]CC1.OCC1CC[N-]CC1.[Cl][Pt+2]([Cl])([Cl])[Cl]	NO
COc1cccc2c1OC(c1ccc(C#N)cc1)C([N+](=O)[O-])=C2 (centres undefined)	YES
CN(C)c1ccc(/C=C(\NC(=O)c2ccccc2)c2nc3ccccc3s2)cc1	NO
Cc1ccc(C(OS(=O)(=O)c2ccc(C)cc2)C(F)(F)F)cc1 (centres undefined)	NO
CCN(CC)COC(=S)S	NO
Cc1cccc(C[N+](C)(C)CCCO)c1C	NO
CCC1=C(C)/C(=C/c2[nH]c(C(Br)Br)c(CC)c2C)N=C1C(Br)Br	NO
O=C(OCC1CCCO1)N(c1ccccc1)c1ccccc1 (centres undefined)	NO
CCOC(=O)NN(C(=O)OCC)c1ccc(N=Nc2ccc(OC)cc2)n1C	NO
Cn1cnc([N+](=O)[O-])c1Sc1nnnn1-c1ccccc1	NO
CC(=O)[O-].O=C(N/N=C/c1ccccc1[O-])c1ccccc1.[Zn+2]	NO
CCC1(C)OC(=O)C(c2ccccc2)O1 (centres undefined)	NO
CCC(=O)OC1=C(Br)C(=O)c2ccccc2C1=O	NO
O=C(O)c1c2c(c(O)c3c1CN(C1CCCCC1)CO3)OCN(C1CCCCC1)C2	NO

###

Listing of entries alongside the reported growth inhibition.
procedureDetails: NCI Yeast Anticancer Drug Screen. Data for the cln2 rad14 strain (AID 165);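 further: 0% = growth equal to vehicle treated cultures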
runConditions: S. cerevisiae cln2 rad14 strain, at 50.0 µM (retest, dose inferred, filed as 5.0), active compounds read high
This is part of a sample that, as a whole, favours compounds with a hit. Of some 79,000 tested, about 15% had one in any assay.

molecule	growth inhibition [%]
COc1ccc2c(c1)CCCN2CCCCCCCN1CCCCC1	58
CCC(=O)Nc1ccc(NC(C)=O)cc1	-16
O=C(O)c1cc2c3ccccc3sc2c2ccccc12	-3
CC(=O)N(C)NC(=O)c1ccccc1	5
CCOC(=O)c1ccc(NC(=O)O/N=C(/Cl)CCl)cc1	78
FC(F)(F)c1nc(SCc2ccc(Cl)cc2)n[nH]1	-17
NC(=O)C1(Br)C=[N+](Cc2ccccc2)CCC1 (configuration not stated)	-3
C/C(=N\NC(=S)N1CCN(c2ccccc2)CC1)c1nccs1	98
S=c1[nH]c2cc(-c3ccccc3)ccc2o1	65
COc1cccc(C2c3cc4c(cc3OC(O)C2C)OCO4)c1O (configuration not stated)	4
O=C(NC1=Nc2c(ncn2COCCO)S(=O)(=O)[N-]1)c1ccccc1.[Ag+]	99
c1ccc2sc(SSN3CCOCC3)nc2c1	97

###

List of growth inhibition values.
procedureDetails: NCI Yeast Anticancer Drug Screen. Data for the mlh1 rad18 strain (AID 175)
runConditions: S. cerevisiae mlh1 rad18 strain growth inhibition; at 5.0 µM (retest, dose inferred, filed as 0.5); active compounds read high
About 79,000 compounds went through this panel and 15% of them were active in at least one assay; those are over-represented in the sample as a whole.

compound	unitDescriptor	growth inhibition
CCC(C)OC(=S)S (configuration not stated)	%	15
CCCCCCCCc1cc[n+](C2=C([O-])c3ccccc3C(=O)C2=O)cc1	%	100
COc1ccc(CC/C(=N/O)c2ccccc2)cc1	%	-9
CC1(C)C[C@H]2C=C(C=O)[C@]34C[C@]3(C(=O)OC4O)[C@H]2C1 (some centres not stated)	%	96
O=C(CSCc1c(F)cccc1Cl)Nc1ccc(F)c(Cl)c1	%	49
O=C(O)c1cc2ccc(Cl)cc2c2c1C(=O)c1cc(Cl)ccc1-2	%	-4
NC(N)=NS(=O)(=O)c1ccc(N=Cc2c3ccccc3nc3cc(Cl)ccc23)cc1	%	6
CC(/C=C/c1ccco1)=N\NC(=S)NCC(C)C	%	25
O=C(OCc1ccccc1)N(CCCCN(CCCNCc1ccccc1)C(=O)OCc1ccccc1)CCCNCc1ccccc1	%	28
O=C1C(Br)=C(Sc2ccc([N+](=O)[O-])cc2)C(=O)c2ccccc21	%	33
O=C1c2ccccc2-c2cc3ccccc3nc21	%	16
Cc1c2ccccc2c(CCl)c2ccc3ccccc3c12	%	100
O=C1C(C(O)(C(F)(F)Cl)C(F)(F)Cl)CCC1C(O)(C(F)(F)Cl)C(F)(F)Cl (configuration not stated)	%	95
Cc1noc(NS(=O)(=O)c2ccc(N=Nc3cc(N=Nc4ccc(S(=O)(=O)Nc5onc(C)c5C)cc4)c4c(NC(=O)C(Cl)Cl)cccc4c3O)cc2)c1C (tested in a mixture with another compound)	%	88
O=S(=O)(N=S(c1ccc(Cl)cc1)c1ccc(Cl)cc1)c1ccccc1	%	0
CCCCCCC/C=C\C(=O)O	%	1
CN1c2ccccc2C(=O)NC1c1ccc([N+](=O)[O-])s1 (configuration not stated)	%	-22
O=C(CCl)N1CCN(C(c2ccccc2)c2ccccc2)CC1	%	15
COc1ccc(CN2CCCN(Cc3ccc(OC)cc3OC)C2c2cc(Br)ccc2O)c(OC)c1	%	63
CCC(/C=C/c1ccccc1)=N\Nc1ccccc1	%	-13
O=C(O)C1C(c2ccccc2)=C1c1ccccc1	%	-12
CCCCCC/C=C\CCCCCCCCCc1c(O)c(OC)cc(O)c1CN(C)C	%	2

###

procedureDetails: NCI Yeast Anticancer Drug Screen. Data for the rad50 strain (AID 155);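 further: 0% = growth of vehicle-only cultures of the same strain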
runConditions: S. cerevisiae rad50 strain growth inhibition; at 50.0 µM (retest, dose inferred, filed as 5.0)
About 79,000 compounds went through this panel and 15% of them were active in at least one assay; those are over-represented in the sample as a whole. Activity calls are given as the source filed them. Cut-off read from the data, not from the text of the source: active = growth inhibition above about 70%; inactive = the rest.
Outcome codes: active, inactive

molecule	cat
CCC1(C)OC(=O)C(c2ccccc2)O1 (stereo not given)	inactive
CS(=O)(=O)OCCN(CCOS(C)(=O)=O)c1ccc(C=Nc2ccc(-c3cnc(-c4ccc(Cl)cc4)s3)cc2)c(Cl)c1	active
CCCCCCCSCc1nc2ccccc2c(C)[n+]1[O-]	active
CC1(C)COC(c2cccc(C(O)c3ccc(Cl)cc3)c2)=N1 (stereo not given)	active
C1C[OH+]CC[OH+]CCNCC[OH+]CC[OH+]CCN1.[Cl-].[Pt+4]	inactive
CCCSc1n[nH]c(=S)s1	inactive
C[C@H](CCC1=NCCN1)[C@H]1CC[C@H]2[C@@H]3[C@H](O)C[C@@H]4C[C@H](O)CC[C@]4(C)[C@H]3CC[C@]12C	active
NC(CSC1(c2ccc(Cl)cc2)c2ccccc2-c2ccccc21)C(=O)O (stereo not given)	inactive
CC(C)NC(=O)OCCS(=O)c1c(Cl)c(Cl)nn1C (stereo not given)	inactive
O=P(OCCCl)(OCCCl)C(Nc1cccc2ccccc12)c1ccccc1 (stereo not given)	active
